- System: DLD-1 BRCA2−/− cells
- assay.name: Homologous recombination synthetic lethal inhibition of proliferation, DLD-1 BRCA2-/- (Cell Titre Glo 3D)
- Type: cell-based
- condition.details: Homo sapiens, DLD-1, first proliferation column (c5); DLD-1 BRCA2-/-; read-out: POLQ PD Prolif Lumin (converted)
compounds and their reported IC50
Please state the figure in nM; there is no need to write the unit.

{"columns": ["compound", "unit.label", "IC50"],
 "data": [
  ["CC[C@@H](O)CNC(=O)COc1ccc(-c2nc3c(OC4(C)CC4)ncnc3n2Cc2cc(C)ccn2)c(Cl)c1 [Example T520]", "nM", 398],
  ["CC1(Oc2ncnc3c2nc(-c2ccc(OCCN4CCNCC4)cc2Cl)n3Cc2cnc(Cl)s2)CC1 [Example T146]", "nM", 1260],
  ["Cc1ccnc(Cn2c(-c3ccc(C4CCC(=O)N4)cc3Cl)nc3c(OC4(C)CC4)ncnc32)c1 (single isomer, unassigned) [Example T172]", "nM", 398],
  ["Cc1ccnc(Cn2c(-c3ccc(OCC(F)CO)cc3Cl)nc3c(OC4(C)CC4)ncnc32)c1 (single isomer, unassigned) [Example T109]", "nM", 158],
  ["Cc1ccnc(Cn2c(-c3ccc(OCCNS(C)(=O)=O)cc3Cl)nc3c(OC4(C)CC4)ncnc32)c1 [Example T144]", "nM", 158],
  ["Cc1ccnc(Cn2c(-c3ccc(C(=O)N(C)C)cc3Cl)nc3c(OC4(C)CC4)ncnc32)c1 [Example T112]", "nM", 1580]
]}

Provide measured IC50 value, entry: Cc1ccnc(Cn2c(-c3ccc(CC(=O)NCC(C)(C)O)cc3Cl)nc3c(OC4(C)CC4)ncnc32)c1 [Example T515]
631

###

// reported IC50 per item
- Tested on: DLD-1 BRCA2−/− cells
- assay.name: Homologous recombination synthetic lethal inhibition of proliferation, DLD-1 BRCA2-/- (Cell Titre Glo 3D)
- Assay type: cell-based
- condition.details: Homo sapiens, DLD-1, first proliferation column (c5); DLD-1 BRCA2-/-; read-out: POLQ PD Prolif Lumin (converted)
The answer is to be given in nM; state only the numeric part.

Guide cases for IC50, answers given:
{"columns": ["molecule", "IC50 / nM"],
 "data": [
  ["CNC(=O)[C@H]1CCN(c2ccc(-c3nc4c(OC5(C)CC5)ncnc4n3Cc3cc(C)ccn3)c(Cl)c2)C1 [Example T497]", 501],
  ["COc1ccc(Cn2c(-c3ccc(CC(N)=O)cc3Cl)nc3c(OC4(C)CC4)ncnc32)cc1 [Example T106]", 631],
  ["Cc1ccnc(Cn2c(-c3ccc(O[C@H]4CCNC4=O)cc3Cl)nc3c(OC4(C)CC4)ncnc32)c1 [Example T185]", 501],
  ["Cc1ccnc(Cn2c(-c3ccc(CN(C)C)cc3Cl)nc3c(OC4(C)CC4)ncnc32)c1 [Example T136]", 501],
  ["CC1(Oc2ncnc3c2nc(-c2ccc(OCCCc4nnn[nH]4)cc2Cl)n3Cc2cccc(Cl)c2)CC1 [Example T164]", 794],
  ["CC1(Oc2ncnc3c2nc(-c2ccc(OCCCN4CC[C@@H](O)C4)cc2Cl)n3Cc2cc(C(F)F)ccn2)CC1 [Example T568]", 794]
]}

Now let's try a different one.
Please indicate IC50 recorded for Cc1ccnc(Cn2c(-c3cccc(OCCCN4CC(O)C4)c3Cl)nc3c(OC4(C)CC4)ncnc32)c1 [Example T514]
398

###

Consider the following molecules and their measured log10(IC50) readings.
- Test system: DLD-1 BRCA2−/− cells
- assay.name: Homologous recombination synthetic lethal inhibition of proliferation, DLD-1 BRCA2-/- (Cell Titre Glo 3D)
- Format: cell-based
- condition.details: Homo sapiens, DLD-1, first proliferation column (c5); DLD-1 BRCA2-/-; read-out: POLQ PD Prolif Lumin (converted)
- Text: This assay identifies anti-proliferative effects of POLQ compounds in the homologous recombination deficient colorectal cell line DLD-1 BRCA2−/− over 8-9 population doublings (7 days for DLD-1 and 12 days for DLD-1 BRCA2−/−). DLD1 BRCA2 wt are used as a control to detect cell toxic effects not specific to homologous recombination deficiency. […]
The base-10 logarithm of IC50, taken with IC50 in µM, is what appears here.

{"columns": ["molecule", "log10(IC50)"],
 "data": [
  ["COc1ccc(Cn2c(-c3ccc(OCCN4CCNCC4)cc3Cl)nc3c(OC4(C)CC4)ncnc32)nc1", 0.80],
  ["Cc1ccnc(Cn2c(-c3ccc(OCC(=O)NC(C)(C)CO)cc3Cl)nc3c(OC4(C)CC4)ncnc32)c1", -0.50],
  ["Cc1ccc(C)c(Cn2c(-c3ccc(OCCC(C)C(=O)O)cc3Cl)nc3c(OC4(C)CC4)ncnc32)c1 (racemic) [Example T569]", -0.20],
  ["Cc1ccnc(Cn2c(-c3ccc(C(=O)NC[C@H](C)F)cc3Cl)nc3c(OC4(C)CC4)ncnc32)c1", -0.40],
  ["Cc1ccnc(Cn2c(-c3ccc(OCCCO)cc3Cl)nc3c(OC4(C)CC4)ncnc32)c1", -1.10]
]}

# return recorded log10(IC50) for entry `Cc1ccnc(Cn2c(-c3ccc(C(=O)N4CCC4)cc3Cl)nc3c(OC4(C)CC4)ncnc32)c1`
-0.20

Could you please provide reported log10(IC50) for `CC(=O)COc1ccc(-c2nc3c(OC4(C)CC4)ncnc3n2Cc2cc(C)ccn2)c(Cl)c1` ? Thanks!
-0.70

###

Entries and their IC50 values follow.
- Test system: DLD-1 BRCA2−/− cells
- assay.name: Homologous recombination synthetic lethal inhibition of proliferation, DLD-1 BRCA2-/- (Cell Titre Glo 3D)
- Type: cell-based
- condition.details: Homo sapiens, DLD-1, 288 h, DLD-1 BRCA2−/−, 12 days, Cell Titre Glo 3D; read-out: POLQ PD Prolif Lumin BRCA2 −/− Mean pIC50 (converted)
Please provide the amount together with its unit, number first.

{"columns": ["compound", "endpoint.value"],
 "data": [
  ["CC1(Oc2ncnc3c2nc(-c2ccc(OCCOCC(=O)O)cc2Cl)n3Cc2cccc(Cl)c2)CC1 [Example 46]", "1260 nM"],
  ["Cc1ccnc(Cn2c(-c3ccc(OC[C@@H](C)O)cc3Cl)nc3c(OC4(C)CC4)ncnc32)c1 [Example 37]", "126 nM"],
  ["Cc1ccnc(Cn2c(-c3ccc(OC4CN(C(=O)CO)C4)cc3Cl)nc3c(OC4(C)CC4)ncnc32)c1 [Example 39]", "158 nM"]
]}

Indicate its recorded IC50; the compound in question is Cc1ccnc(Cn2c(-c3ccc(O[C@H]4CCC(=O)NC4)cc3Cl)nc3c(OC4(C)CC4)ncnc32)c1 [Example 41]
794 nM

For the compound CC1(Oc2ncnc3c2nc(-c2ccc(OCC(C)(C)C(=O)O)cc2Cl)n3Cc2cccc(Cl)c2)CC1 [Example 32] , report IC50.
631 nM

Item CC1(Oc2ncnc3c2nc(-c2ccc(CC(N)=O)cc2Cl)n3Cc2cc(Cl)ccn2)CC1 [Example 38] : provide IC50
398 nM

Kindly indicate its recorded IC50. Item: COc1ccc(Cl)cc1Cn1c(-c2ccc(OCC[C@@H](C)C(=O)O)cc2Cl)nc2c(OC3(C)CC3)ncnc21 [Example 47]
25.1 nM

###

In this section we review reported IC50 values for a set of compounds.
- Test system: DLD-1 BRCA2−/− cells
- assay.name: Homologous recombination synthetic lethal inhibition of proliferation, DLD-1 BRCA2-/- (Cell Titre Glo 3D)
- Format: cell-based
- condition.details: Homo sapiens, DLD-1, first proliferation column (c5); DLD-1 BRCA2-/-; read-out: POLQ PD Prolif Lumin (converted)
# number only, unit nM dropped from output

{"columns": ["compound", "experimental.system", "unit.label", "endpoint.value"],
 "data": [
  ["Cc1c(Cn2c(-c3ccc(OCCC(C)C(=O)O)cc3Cl)nc3c(OC4(C)CC4)ncnc32)cccc1C(F)(F)F (single isomer, unassigned)", "DLD-1 BRCA2−/− cells", "nM", 3160],
  ["Cc1ccnc(Cn2c(-c3ccc(OC[C@H]4CNC(=O)O4)cc3Cl)nc3c(OC4(C)CC4)ncnc32)c1", "DLD-1 BRCA2−/− cells", "nM", 501]
]}

Input `COC(=O)CCOc1ccc(-c2nc3c(OC4(C)CC4)ncnc3n2Cc2cccc(Cl)c2)c(Cl)c1` , output reported IC50.
200

###

- System: DLD-1 BRCA2−/− cells
- assay.name: Homologous recombination synthetic lethal inhibition of proliferation, DLD-1 BRCA2-/- (Cell Titre Glo 3D)
- Type: cell-based
- condition.details: Homo sapiens, DLD-1, first proliferation column (c5); DLD-1 BRCA2-/-; read-out: POLQ PD Prolif Lumin (converted)
experimental.endpoint: IC50

A selection of reference data follows.
{"columns": ["compound", "IC50"],
 "data": [
  ["Cc1ccnc(Cn2c(-c3ccc(CC(=O)N4C[C@@H]5C[C@H]4CN5)cc3Cl)nc3c(OC4(C)CC4)ncnc32)c1", "> 6310 nM"],
  ["Cc1ccnc(Cn2c(-c3ccc(OCC(=O)N4CCC(F)CC4)cc3Cl)nc3c(OC4(C)CC4)ncnc32)c1", "200 nM"],
  ["Cc1ccnc(Cn2c(-c3ccc(N4CCNC(=O)C4)cc3Cl)nc3c(OC4(C)CC4)ncnc32)c1", "501 nM"],
  ["CC[C@H](CO)NC(=O)COc1ccc(-c2nc3c(OC4(C)CC4)ncnc3n2Cc2cc(C)ccn2)c(Cl)c1", "398 nM"],
  ["Cc1ccnc(Cn2c(-c3ccc(CN4CC5(CCN5)C4)cc3Cl)nc3c(OC4(C)CC4)ncnc32)c1", "794 nM"]
]}

Retrieve IC50 measured for Cc1ccnc(Cn2c(-c3ccc(C4CNC(=O)C4)cc3Cl)nc3c(OC4(C)CC4)ncnc32)c1 (single isomer, unassigned) and print it.
501 nM

Given Cc1ccnc(Cn2c(-c3ccc(OC4CCNC4=O)cc3Cl)nc3c(OC4(C)CC4)ncnc32)c1 (racemic) , respond with its IC50.
501 nM

The reported numbers originate from patent US20250195530A1.
